Measured GI50 values are reported for all entries that follow.
System: IGROV-ET
Assay: SRB colorimetric cell growth inhibition assay, IGROV-ET (ET-743 resistant)
Type: cell-based
Settings: Homo sapiens, IGROV-ET; GI=growth inhibition; read-out: GI50 IGROV-ET
Show the value, then the unit it is measured in.

# input GI50 lookup needed for COc1cc(-c2c3c4cc(OC)c(OC(=O)[C@@H]5CCCN5)cc4oc(=O)c3n3ccc4cc(OC(=O)[C@@H]5CCCN5)c(OC)cc4c23)ccc1OC(=O)[C@@H]1CCCN1 [Compound 33] , thanks.
# output 78.1 nM

# input Next record, please: COc1cc(-c2c3n(c4c(=O)oc5cc(O)c(OC)cc5c24)CCc2c-3cc(OC)c(OC)c2O)ccc1O [Compound 1]
# output 444 nM

# input COc1cc(-c2c3c4cc(OC)c(OC(=O)[C@H](C)NC(=O)[C@H](C)N)cc4oc(=O)c3n3ccc4c(OC(=O)[C@H](C)NC(=O)[C@H](C)N)c(OC)c(OC)cc4c23)ccc1OC(=O)[C@H](C)NC(=O)[C@H](C)N [Compound 5] , same question.
# output 212 nM

# input And then COc1cc(-c2c3c4cc(OC)c(OC(=O)[C@@H](N)CC(C)C)cc4oc(=O)c3n3ccc4cc(OC(=O)[C@@H](N)CC(C)C)c(OC)cc4c23)ccc1OC(=O)[C@@H](N)CC(C)C [Compound 39] , what is it?
# output 55 nM

# input And COc1cc2c(cc1OC)-c1c(-c3ccc(OC(=O)[C@H](Cc4ccccc4)NC(=O)OC(C)(C)C)c(OC)c3)c3c4cc(OC)c(OC(=O)[C@H](Cc5ccccc5)NC(=O)OC(C)(C)C)cc4oc(=O)c3n1CC2 [Compound 84] ?
# output 4260 nM

* * *

Test system: PANC-1
Test: SRB colorimetric cell growth inhibition assay, PANC-1
Assay type: cell-based
Conditions: Homo sapiens, PANC-1, PANC-1; GI=growth inhibition; read-out: GI50 PANC-1
Listed here: items and their measured GI50.
The reply should be a number in nM, with the unit left off.

Record excerpt, results attached:
record_smiles=COc1cc(-c2c3c4cc(OC)c(OC(=O)[C@@H]5CCCN5)cc4oc(=O)c3n3ccc4cc(OC(=O)[C@@H]5CCCN5)c(OC)cc4c23)ccc1OC(=O)[C@@H]1CCCN1 scale_unit=nM endpoint_value=130
record_smiles=COc1cc(-c2c3n(c4c(=O)oc5cc(OC(=O)[C@@H]6CCCN6)c(OC)cc5c24)CCc2cc(OC(=O)[C@@H]4CCCN4)c(OC)cc2-3)ccc1OC(=O)[C@@H]1CCCN1 scale_unit=nM endpoint_value=2170
record_smiles=COc1cc(-c2c3n(c4c(=O)oc5cc(OC(=O)[C@H](CO)NC(=O)OC(C)(C)C)c(OC)cc5c24)CCc2c-3cc(OC)c(OC)c2OC(=O)[C@H](CO)NC(=O)OC(C)(C)C)ccc1OC(=O)[C@H](CO)NC(=O)OC(C)(C)C scale_unit=nM endpoint_value=747
record_smiles=COc1cc(-c2c3n(c4c(=O)oc5cc(OC(=O)[C@@H](N)COCc6ccccc6)c(OC)cc5c24)CCc2c-3cc(OC)c(OC)c2OC(=O)[C@@H](N)COCc2ccccc2)ccc1OC(=O)[C@@H](N)COCc1ccccc1 scale_unit=nM endpoint_value=1950

# input Returns the measured GI50 for the input molecule. Input: COc1cc(-c2c3c4cc(OC)c(OC(=O)[C@H](C)N)cc4oc(=O)c3n3ccc4cc(OC(=O)[C@H](C)N)c(OC)cc4c23)ccc1OC(=O)[C@H](C)N
# output 36.9
